SYSTEM_UNDER_TEST: UniProtKB Q2M2I8
ASSAY_DETAILS: NanoBRET target engagement assay, intact and permeabilized cells
CONDITION_SUMMARY: AAK1 permeabilized (IC50±sd)/μM, NanoBRET, permeabilized cells; mean of duplicates
METRIC_NAME: IC50 (µM)

Use these answered entries as a reference point.
STRUCTURE | METRIC_NAME | UNIT_ABBREVIATION | RECORDED_NUMBER
CC(C)(C)OC(=O)NCCOCCOCCOCCOCCC(=O)N1CCN(c2cc(Nc3cc(C4CC4)[nH]n3)nc(Nc3ccc(CC#N)cc3)n2)CC1 | IC50 | µM | 0.023
Cc1ncsc1-c1ccc(CNC(=O)[C@@H]2C[C@@H](O)CN2C(=O)[C@@H](NC(=O)CCOCCOCCN2CCN(c3ccc(Nc4ncc(Cl)c(Nc5ccccc5C(N)=O)n4)cc3)CC2)C(C)(C)C)cc1 | IC50 | µM | 0.028

A: Cc1ncsc1-c1ccc(CNC(=O)[C@@H]2C[C@@H](O)CN2C(=O)[C@@H](NC(=O)CCCCCCN2CCN(c3cc(Nc4cc(C5CC5)[nH]n4)nc(Nc4ccc(CC#N)cc4)n3)CC2)C(C)(C)C)cc1
B: CC(C)(C)OC(=O)NCCCOCCOCCOCCCNC(=O)c1cc(Nc2cc(C3CC3)[nH]n2)nc(Nc2ccc(CC#N)cc2)n1
QUERY: Out of A and B , name the one with the higher IC50. Answer by stating the label of the chosen item.
RESULT: A
(A: 0.178 µM, B: 0.07 µM)

====

SYSTEM_UNDER_TEST: AURKA (Homo sapiens)
Sequence (O14965 1-403): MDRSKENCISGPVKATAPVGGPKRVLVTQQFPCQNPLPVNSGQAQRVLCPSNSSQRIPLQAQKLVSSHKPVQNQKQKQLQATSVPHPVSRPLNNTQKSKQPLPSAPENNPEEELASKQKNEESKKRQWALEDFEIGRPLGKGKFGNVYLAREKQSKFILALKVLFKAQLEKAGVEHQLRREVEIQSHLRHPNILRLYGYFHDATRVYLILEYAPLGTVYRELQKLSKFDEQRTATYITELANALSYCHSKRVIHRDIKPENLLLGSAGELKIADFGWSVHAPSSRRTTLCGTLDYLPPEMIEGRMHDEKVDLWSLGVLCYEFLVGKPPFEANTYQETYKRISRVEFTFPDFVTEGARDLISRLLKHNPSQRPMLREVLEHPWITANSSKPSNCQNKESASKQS
ASSAY_DETAILS: NanoBRET target engagement assay, intact and permeabilized cells
CONDITION_SUMMARY: AURKA permeabilized (IC50±sd)/μM, permeabilized cells, mean of duplicates, ^a values estimated by extrapolation
METRIC_NAME: IC50 (µM)

STRUCTURE | IC50, µM
CC(C)(C)OC(=O)NCCOCCOCCOCCOCCC(=O)N1CCN(c2cc(Nc3cc(C4CC4)[nH]n3)nc(Nc3ccc(CC#N)cc3)n2)CC1 | 0.63

1: Cc1ncsc1-c1ccc(CNC(=O)[C@@H]2C[C@@H](O)CN2C(=O)[C@@H](NC(=O)CCOCCOCCN2CCN(c3ccc(Nc4ncc(Cl)c(Nc5ccccc5C(N)=O)n4)cc3)CC2)C(C)(C)C)cc1
2: Cc1ncsc1-c1ccc(CNC(=O)[C@@H]2C[C@@H](O)CN2C(=O)[C@@H](NC(=O)CCOCCOCCOCCN2CCN(c3cc(Nc4cc(C5CC5)[nH]n4)nc(Nc4ccc(CC#N)cc4)n3)CC2)C(C)(C)C)cc1
3: Cc1ncsc1-c1ccc(CNC(=O)[C@@H]2C[C@@H](O)CN2C(=O)[C@@H](NC(=O)CCCCCCN2CCN(c3ccc(Nc4ncc(Cl)c(Nc5ccccc5C(N)=O)n4)cc3)CC2)C(C)(C)C)cc1
QUERY: Number of molecules to sort: 3. Sort criterion: IC50, ascending. Please respond by ranking the labels in the order requested.
RESULT: 1, 3, 2
(1: 0.105 µM, 3: 0.249 µM, 2: 1.34 µM)

I: Cc1ncsc1-c1ccc(CNC(=O)[C@@H]2C[C@@H](O)CN2C(=O)[C@@H](NC(=O)CCCCCCN2CCN(c3cc(Nc4cc(C5CC5)[nH]n4)nc(Nc4ccc(CC#N)cc4)n3)CC2)C(C)(C)C)cc1
II: Cc1ncsc1-c1ccc(CNC(=O)[C@@H]2C[C@@H](O)CN2C(=O)[C@@H](NC(=O)CCOCCOCCOCCOCCN2CCN(c3ccc(Nc4ncc(Cl)c(Nc5ccccc5C(N)=O)n4)cc3)CC2)C(C)(C)C)cc1
III: CC(=O)N[C@H](C(=O)N1C[C@H](O)C[C@H]1C(=O)NCc1ccc(-c2scnc2C)cc1OCCOCCOCCOCCOCCC(=O)N1CCN(c2ccc(Nc3ncc(Cl)c(Nc4ccccc4C(N)=O)n3)cc2)CC1)C(C)(C)C
QUERY: Reorder: IC50, max to min. Please respond by ranking the labels in the order requested.
RESULT: I, III, II
(I: 2.73 µM, III: 0.861 µM, II: 0.254 µM)

a: Cc1ncsc1-c1ccc(CNC(=O)[C@@H]2C[C@@H](O)CN2C(=O)[C@@H](NC(=O)CCOCCOCCOCCOCCOCCOCCN2CCN(c3cc(Nc4cc(C5CC5)[nH]n4)nc(Nc4ccc(CC#N)cc4)n3)CC2)C(C)(C)C)cc1
b: CCOC(=O)c1cc(Nc2cc(C3CC3)[nH]n2)nc(Nc2ccc(CC#N)cc2)n1
c: CC(=O)N[C@H](C(=O)N1C[C@H](O)C[C@H]1C(=O)NCc1ccc(-c2scnc2C)cc1OCCOCCOCCOCCOCCC(=O)N1CCN(c2cc(Nc3cc(C4CC4)[nH]n3)nc(Nc3ccc(CC#N)cc3)n2)CC1)C(C)(C)C
QUERY: Reorder: IC50, max to min. Please respond by ranking the labels in the order requested.
RESULT: a, c, b
(a: 4.84 µM, c: 1.52 µM, b: 0.507 µM)

====

SYSTEM_UNDER_TEST: AAK1 (Homo sapiens)
Construct: endogenous in cells; host or cells: Jurkat (Clone E6.1) cell lysate
Sequence (Q2M2I8 whole entry): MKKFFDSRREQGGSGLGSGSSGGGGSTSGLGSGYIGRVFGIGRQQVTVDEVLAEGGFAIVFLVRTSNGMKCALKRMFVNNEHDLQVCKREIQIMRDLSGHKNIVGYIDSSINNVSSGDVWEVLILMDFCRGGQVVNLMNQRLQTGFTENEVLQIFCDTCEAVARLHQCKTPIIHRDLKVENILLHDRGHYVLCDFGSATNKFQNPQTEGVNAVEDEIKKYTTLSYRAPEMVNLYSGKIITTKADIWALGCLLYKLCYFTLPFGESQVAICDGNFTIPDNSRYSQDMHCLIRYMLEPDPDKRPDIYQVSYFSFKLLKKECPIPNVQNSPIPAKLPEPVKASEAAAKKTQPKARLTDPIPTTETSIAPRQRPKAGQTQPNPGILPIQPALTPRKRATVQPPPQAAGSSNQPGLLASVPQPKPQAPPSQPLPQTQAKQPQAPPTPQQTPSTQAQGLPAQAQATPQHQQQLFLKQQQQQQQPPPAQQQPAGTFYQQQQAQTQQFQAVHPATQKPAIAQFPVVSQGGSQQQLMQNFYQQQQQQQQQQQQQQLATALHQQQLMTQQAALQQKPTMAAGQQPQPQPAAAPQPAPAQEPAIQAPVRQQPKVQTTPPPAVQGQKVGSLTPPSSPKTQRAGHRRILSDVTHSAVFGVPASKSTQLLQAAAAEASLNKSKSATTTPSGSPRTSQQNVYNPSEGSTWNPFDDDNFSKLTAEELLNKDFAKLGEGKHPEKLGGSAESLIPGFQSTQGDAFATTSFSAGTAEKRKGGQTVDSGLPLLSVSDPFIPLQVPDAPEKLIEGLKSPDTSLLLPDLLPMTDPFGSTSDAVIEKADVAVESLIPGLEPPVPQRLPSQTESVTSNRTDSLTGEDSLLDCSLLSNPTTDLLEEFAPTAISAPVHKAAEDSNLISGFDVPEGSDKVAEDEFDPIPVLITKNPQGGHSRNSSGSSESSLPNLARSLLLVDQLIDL
ASSAY_DETAILS: Kinobeads selectivity profiling
Type: binding
CONDITION_SUMMARY: Jurkat lysate, dose series given in nM, read-out: Kd (apparent dissociation constant, corrected for protein depletion)
METRIC_NAME: Kd (nM)

Use these answered entries as a reference point.
STRUCTURE | SYSTEM_UNDER_TEST | RECORDED_NUMBER
CC(C)(C)OC(=O)NCCOCCOCCOCCOCCC(=O)N1CCN(c2cc(Nc3cc(C4CC4)[nH]n3)nc(Nc3ccc(CC#N)cc3)n2)CC1 | AAK1 (Homo sapiens) | 6.67
CC(C)(C)OC(=O)NCCCOCCOCCOCCCNC(=O)c1cc(Nc2cc(C3CC3)[nH]n2)nc(Nc2ccc(CC#N)cc2)n1 | AAK1 (Homo sapiens) | 35.5

P: CC(C)(C)OC(=O)N1CCN(c2cc(Nc3cc(C4CC4)[nH]n3)nc(Nc3ccc(CC#N)cc3)n2)CC1
Q: NC(=O)c1ccccc1Nc1nc(Nc2ccc(N3CCNCC3)cc2)ncc1Cl
QUERY: Out of P and Q , name the one with the higher Kd. Answer by stating the label of the chosen item.
RESULT: P

====

Let's look at some molecules and their measured IC50.
SYSTEM_UNDER_TEST: AURKA (Homo sapiens)
ASSAY_DETAILS: NanoBRET target engagement assay, intact and permeabilized cells
CONDITION_SUMMARY: AURKA intact (IC50±sd)/μM, intact cells, mean of duplicates, ^a values estimated by extrapolation

Use these answered entries as a reference point.
STRUCTURE | IC50
Cc1ncsc1-c1ccc(CNC(=O)[C@@H]2C[C@@H](O)CN2C(=O)[C@@H](NC(=O)CCOCCOCCN2CCN(c3ccc(Nc4ncc(Cl)c(Nc5ccccc5C(N)=O)n4)cc3)CC2)C(C)(C)C)cc1 | 0.203 µM
CC(=O)N[C@H](C(=O)N1C[C@H](O)C[C@H]1C(=O)NCc1ccc(-c2scnc2C)cc1OCCOCCOCCOCCNC(=O)c1cc(Nc2cc(C3CC3)[nH]n2)nc(Nc2ccc(CC#N)cc2)n1)C(C)(C)C | ~18.5 µM
Cc1ncsc1-c1ccc(CNC(=O)[C@@H]2C[C@@H](O)CN2C(=O)[C@@H](NC(=O)CCOCCOCCOCCOCCOCCOCCN2CCN(c3cc(Nc4cc(C5CC5)[nH]n4)nc(Nc4ccc(CC#N)cc4)n3)CC2)C(C)(C)C)cc1 | ~18.9 µM
CC(C)(C)OC(=O)NCCCOCCOCCOCCCNC(=O)c1cc(Nc2cc(C3CC3)[nH]n2)nc(Nc2ccc(CC#N)cc2)n1 | ~19.7 µM

Now examine the next entry.
QUERY: # lookup: IC50 of Cc1ncsc1-c1ccc(CNC(=O)[C@@H]2C[C@@H](O)CN2C(=O)[C@@H](NC(=O)CCCCCCN2CCN(c3cc(Nc4cc(C5CC5)[nH]n4)nc(Nc4ccc(CC#N)cc4)n3)CC2)C(C)(C)C)cc1
RESULT: ~5.98 µM
